Measured values drawn from patent US7109193B2 for this set.

Target: human vasopressin V1a receptor subtype (Homo sapiens, UniProt P37288)
Sequence (P37288 whole entry): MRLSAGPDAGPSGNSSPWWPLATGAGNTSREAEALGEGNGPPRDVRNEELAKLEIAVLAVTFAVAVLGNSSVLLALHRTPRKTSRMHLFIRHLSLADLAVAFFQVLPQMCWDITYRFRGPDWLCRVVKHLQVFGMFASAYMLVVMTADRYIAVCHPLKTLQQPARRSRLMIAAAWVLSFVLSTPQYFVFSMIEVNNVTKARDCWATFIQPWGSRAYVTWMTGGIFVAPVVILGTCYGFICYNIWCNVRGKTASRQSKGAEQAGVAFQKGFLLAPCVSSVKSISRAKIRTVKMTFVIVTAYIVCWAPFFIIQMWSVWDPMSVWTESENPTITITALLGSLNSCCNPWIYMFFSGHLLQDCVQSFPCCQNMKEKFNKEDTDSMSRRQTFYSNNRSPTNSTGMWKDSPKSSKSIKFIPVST
Where a name gives a salt, the structure may show the parent alone.
Response field label takes 1.0 when IC50 is strictly below 0.5 µM and 0.0 in all other cases.

See these solved cases before continuing.
COc1cc(C(=O)N2Cc3cccn3Cc3ccccc32)ccc1-n1c(C)ccc1C : 1.0
Cc1cc(C(=O)N2Cc3ccc(C(=O)N4CC[C@@H](N(C)C)C4)n3Cc3ccccc32)ccc1-c1ccccc1C(F)(F)F : 0.0
COc1cc(-c2ccccc2C)c(Cl)cc1C(=O)N1Cc2ccc(C(=O)N3CCC(N4CCCCC4)CC3)n2Cc2ccccc21 : 0.0
COc1ccccc1-c1ccc(C(=O)N2Cc3ccc(C(=O)N4CCN(C)CC4)n3Cc3ccccc32)cc1 : 1.0
COc1ccccc1-c1ccc(C(=O)N2Cc3ccc(C(=O)N4CCN(CCN5CCOCC5)CC4)n3Cc3ccccc32)cc1C : 1.0
COc1cccc(-c2ccc(C(=O)N3Cc4ccc(C(=O)N5CC[C@@H](N(C)C)C5)n4Cc4ccccc43)cc2C)c1 : 1.0

IC50 strictly < 0.5 µM for this compound? COc1cc(-c2ccccc2C)c(Cl)cc1C(=O)N1Cc2ccc(C(=O)N3CCN(CCN(C)C)CC3)n2Cc2ccccc21
0.0

IC50 strictly < 0.5 µM for this compound? COc1cc(-c2ccccc2C)c(Cl)cc1C(=O)N1Cc2ccc(C(=O)N(C)CCCN(C)C)n2Cc2ccccc21
1.0

IC50 strictly < 0.5 µM for this compound? COc1ccccc1-c1ccc(C(=O)N2Cc3ccc(C(=O)N4CCN(CCCN(C)C)CC4)n3Cc3ccccc32)cc1C
0.0

IC50 strictly < 0.5 µM for this compound? COc1cc(-c2ccccc2C)c(Cl)cc1C(=O)N1Cc2ccc(C(=O)N3CCC(N4CCCC4)CC3)n2Cc2ccccc21
0.0

IC50 strictly < 0.5 µM for this compound? COc1cc(-c2ccccc2F)c(Cl)cc1C(=O)N1Cc2cccn2Cc2ccccc21 [Example 18B]
1.0

IC50 strictly < 0.5 µM for this compound? Cc1cc(C(=O)N2Cc3ccc(C(=O)N(C)CCN(C)C)n3Cc3ccccc32)ccc1-c1ccccc1C(F)(F)F
0.0

IC50 strictly < 0.5 µM for this compound? Cc1cc(C(=O)N2Cc3ccc(C(=O)N4CCNCC4)n3Cc3ccccc32)ccc1-c1ccccc1C(F)(F)F [Example 7, hydrochloride salt]
0.0

IC50 strictly < 0.5 µM for this compound? COc1cccc(-c2cc(OC)c(C(=O)N3Cc4ccc(C(=O)N(C)CCN(C)C)n4Cc4ccccc43)cc2Cl)c1
1.0

---

Biological target: human oxytocin receptor (Homo sapiens, UniProt P30559)
Construct: host or cells: CHO cells (pcDNA3.1 vector)
Sequence (P30559 whole entry): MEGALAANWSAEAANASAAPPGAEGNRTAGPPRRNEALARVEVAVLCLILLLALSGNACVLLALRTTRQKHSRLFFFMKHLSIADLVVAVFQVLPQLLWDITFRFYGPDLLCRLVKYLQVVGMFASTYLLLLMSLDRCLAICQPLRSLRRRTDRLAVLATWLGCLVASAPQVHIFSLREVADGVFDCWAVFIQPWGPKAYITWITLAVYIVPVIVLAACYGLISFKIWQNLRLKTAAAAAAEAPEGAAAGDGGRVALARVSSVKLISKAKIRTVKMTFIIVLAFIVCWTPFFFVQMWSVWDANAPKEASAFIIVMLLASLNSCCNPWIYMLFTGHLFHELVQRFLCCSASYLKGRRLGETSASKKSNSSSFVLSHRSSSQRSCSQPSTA
Experiment: Oxytocin binding in Chinese Hamster Ovary cell membranes expressing human oxytocin receptors
Conditions: 100 nM, CHO cell membranes, [3H]oxytocin, values without parentheses, read-out: OT % inhibition @ 100% nM
READOUT_TYPE: inhibition at 0.1 µM (%)
Write it as a number; the unit % goes unstated.

// lookup inhibition at 0.1 µM for COc1cccc(-c2ccc(C(=O)N3Cc4ccc(C(=O)N5CCN(C)CC5)n4Cc4ccccc43)cc2C)c1
81

// lookup inhibition at 0.1 µM for COc1cccc(-c2cc(OC)c(C(=O)N3Cc4ccc(C(=O)N5CCN(C(C)C)CC5)n4Cc4ccccc43)cc2Cl)c1
61

// lookup inhibition at 0.1 µM for COc1ccccc1-c1ccc(C(=O)N2Cc3ccc(C(=O)N(C)C4CCN(C)C4)n3Cc3ccccc32)cc1C (stereo not shown)
95

// lookup inhibition at 0.1 µM for COc1ccccc1-c1ccc(C(=O)N2Cc3ccc(C(=O)N4CCC(N5CCCCC5)CC4)n3Cc3ccccc32)cc1C
89

---

Biological target: human vasopressin V2 receptor subtype (Homo sapiens, UniProt P30518)
Construct: host or cells: CHO cells (pZeoSV vector)
Sequence (P30518 whole entry): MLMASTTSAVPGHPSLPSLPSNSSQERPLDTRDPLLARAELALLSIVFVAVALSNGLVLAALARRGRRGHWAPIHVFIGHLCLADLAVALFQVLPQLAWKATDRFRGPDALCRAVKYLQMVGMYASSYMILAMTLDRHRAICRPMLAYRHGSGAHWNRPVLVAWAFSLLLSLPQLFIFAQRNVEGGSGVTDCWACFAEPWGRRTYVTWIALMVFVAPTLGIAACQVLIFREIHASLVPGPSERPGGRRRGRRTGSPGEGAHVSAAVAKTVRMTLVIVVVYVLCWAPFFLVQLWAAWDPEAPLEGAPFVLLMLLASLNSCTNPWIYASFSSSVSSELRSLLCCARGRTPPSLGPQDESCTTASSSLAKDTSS
Experiment: Vasopressin binding in Chinese Hamster Ovary cell membranes expressing human vasopressin V2 subtype receptors
Conditions: 100 nM, CHO cell membranes, [3H]arginine vasopressin, values without parentheses
READOUT_TYPE: inhibition at 0.1 µM (%)
Write it as a number; the unit % goes unstated.

COc1cc(-c2ccccc2C(F)(F)F)c(Cl)cc1C(=O)N1Cc2ccc(C(=O)O)n2Cc2ccccc21 [Example 15] : 27
COc1cccc(-c2ccc(C(=O)N3Cc4ccc(C(=O)N5CCN(CCCN(C)C)CC5)n4Cc4ccccc43)cc2C)c1 [Example 248] : 7
COc1cc(C(=O)N2Cc3ccc(C(=O)N4CCN(C(C)C)CC4)n3Cc3ccccc32)ccc1-n1c(C)ccc1C [Example 319] : 13
Cc1ccccc1-c1ccc(C(=O)N2Cc3ccc(C(=O)N4CCCN(C)CC4)n3Cc3ccccc32)cc1 [Example 65] : 6

// lookup inhibition at 0.1 µM for CC(C)N1CCN(C(=O)c2ccc3n2Cc2ccccc2N(C(=O)c2ccc(-c4cccc5ccccc45)cc2Cl)C3)CC1 [Example 243]
21

// lookup inhibition at 0.1 µM for Cc1ccccc1-c1ccc(C(=O)N2Cc3ccc(C(=O)N4CCN(CCN5CCOCC5)CC4)n3Cc3ccccc32)cc1 [Example 209]
10

// lookup inhibition at 0.1 µM for COc1ccccc1-c1ccc(C(=O)N2Cc3ccc(C(=O)N[C@@H](CCCCNC(=O)OC(C)(C)C)C(N)=O)n3Cc3ccccc32)cc1OC [Example 303]
14

---

Let's look at some compounds and their measured inhibition at 0.1 µM.
Molecular target: human vasopressin V2 receptor subtype (Homo sapiens)
Construct: host or cells: CHO cells (pZeoSV vector)
Experiment: Vasopressin binding in Chinese Hamster Ovary cell membranes expressing human vasopressin V2 subtype receptors
Conditions: 100 nM, CHO cell membranes, [3H]arginine vasopressin, values without parentheses
Write it as a number; the unit % goes unstated.

Worked cases, inhibition at 0.1 µM given:
O=C(c1ccc2n1Cc1ccccc1N(C(=O)c1ccc(-c3cccc4ccccc34)cc1Cl)C2)N1CCC(N2CCCC2)CC1 [Example 147] : 20
CN(C)CCN(C)C(=O)c1ccc2n1Cc1ccccc1N(C(=O)c1ccc(-c3cccc4ccccc34)cc1Cl)C2 [Example 96] : 24
COc1ccccc1-c1ccc(C(=O)N2Cc3ccc(C(=O)N4CCN(C(C)C)CC4)n3Cc3ccccc32)cc1OC [Example 241] : -17

Consider the additional compound presented here.
Kindly state the measured inhibition at 0.1 µM obtained for COc1cc(C(=O)N2Cc3ccc(C(=O)N4CCCN(C)CC4)n3Cc3ccccc32)ccc1-n1c(C)ccc1C [Example 307] with human vasopressin V2 receptor subtype (Homo sapiens).
8

---

Target: human oxytocin receptor (Homo sapiens, UniProt P30559)
Construct: host or cells: CHO cells (pcDNA3.1 vector)
Test: Oxytocin binding in Chinese Hamster Ovary cell membranes expressing human oxytocin receptors
Conditions: 100 nM, CHO cell membranes, [3H]oxytocin, values without parentheses, read-out: OT % inhibition @ 100% nM
READOUT_TYPE: inhibition at 0.1 µM (%)
Write it as a number; the unit % goes unstated.

Worked cases, inhibition at 0.1 µM given:
COc1ccccc1-c1ccc(C(=O)N2Cc3ccc(C(=O)N4CCCN(C)CC4)n3Cc3ccccc32)cc1OC : 71
COc1ccccc1-c1ccc(C(=O)N2Cc3ccc(C(=O)N[C@@H](Cc4c[nH]cn4)C(N)=O)n3Cc3ccccc32)cc1OC : 86
COc1cc(C(=O)N2Cc3ccc(C(=O)N(C)CCCN(C)C)n3Cc3ccccc32)ccc1-c1cccc2ccccc12 : 88

Consider the additional compound presented here.
// lookup inhibition at 0.1 µM for Cc1ccccc1-c1ccc(C(=O)N2Cc3ccc(C(=O)N(C)CCCN(C)C)n3Cc3ccccc32)cc1C
100

---

Biological target: human vasopressin V2 receptor subtype (Homo sapiens, UniProt P30518)
Construct: host or cells: CHO cells (pZeoSV vector)
Assay: Vasopressin binding in Chinese Hamster Ovary cell membranes expressing human vasopressin V2 subtype receptors
Conditions: 100 nM, CHO cell membranes, [3H]arginine vasopressin, values without parentheses
Let's look at some molecules and their measured inhibition at 0.1 µM.
Write it as a number; the unit % goes unstated.

COc1cc(C(=O)N2Cc3ccc(C(=O)N4CCN(C(C)C)CC4)n3Cc3ccccc32)ccc1-c1ccccc1C [Example 237] : -3
COc1ccccc1-c1ccc(C(=O)N2Cc3ccc(C(=O)N4CCC(N5CCCCC5)CC4)n3Cc3ccccc32)cc1C [Example 112] : 32
CN1CCCN(C(=O)c2ccc3n2Cc2ccccc2N(C(=O)c2ccc(-c4cccc5ccccc45)cc2Cl)C3)CC1 [Example 71] : 13
COc1cc(C(=O)N2Cc3ccc(C(=O)NCCN4CCCCC4)n3Cc3ccccc32)ccc1-c1ccccc1C [Example 154] : 9
COc1cccc(-c2cc(OC)c(C(=O)N3Cc4ccc(C(=O)N5CCN(CCN(C)C)CC5)n4Cc4ccccc43)cc2Cl)c1 [Example 202] : 8
COc1cc(C(=O)N2Cc3ccc(C(=O)NCCCN(C)C)n3Cc3ccccc32)ccc1-c1ccccc1C [Example 77] : 28
COc1ccccc1-c1ccc(C(=O)N2Cc3ccc(C(=O)N(C)C4CCN(C)C4)n3Cc3ccccc32)cc1OC (stereo not shown) [Example 193] : 16
COc1ccccc1-c1ccc(C(=O)N2Cc3ccc(C(=O)N4CCC(N5CCCC5)CC4)n3Cc3ccccc32)cc1 [Example 140] : 29

// lookup inhibition at 0.1 µM for COc1ccccc1-c1ccc(C(=O)N2Cc3ccc(C(=O)NCCC4CCCN4C)n3Cc3ccccc32)cc1 (stereo not shown) [Example 165]
25

// lookup inhibition at 0.1 µM for COc1cc(C(=O)N2Cc3ccc(C(=O)N(C)CCN(C)C)n3Cc3ccccc32)ccc1-n1c(C)ccc1C [Example 309]
7

// lookup inhibition at 0.1 µM for COc1ccccc1-c1ccc(C(=O)N2Cc3ccc(C(=O)N4CCC(N5CCCC5)CC4)n3Cc3ccccc32)cc1C [Example 137]
-4

// lookup inhibition at 0.1 µM for C=CCN1CCN(C(=O)c2ccc3n2Cc2ccccc2N(C(=O)c2cc(Cl)c(-c4cccc(OC)c4)cc2OC)C3)CC1 [Example 226]
10

// lookup inhibition at 0.1 µM for COc1cc(C(=O)N2Cc3ccc(C(=O)N4CCN(CCN5CCOCC5)CC4)n3Cc3ccccc32)ccc1-c1ccccc1C [Example 210]
17
